# assayed-system: Heat shock factor protein 1 (Mus musculus, UniProt P38532)
# Sequence (P38532 whole entry): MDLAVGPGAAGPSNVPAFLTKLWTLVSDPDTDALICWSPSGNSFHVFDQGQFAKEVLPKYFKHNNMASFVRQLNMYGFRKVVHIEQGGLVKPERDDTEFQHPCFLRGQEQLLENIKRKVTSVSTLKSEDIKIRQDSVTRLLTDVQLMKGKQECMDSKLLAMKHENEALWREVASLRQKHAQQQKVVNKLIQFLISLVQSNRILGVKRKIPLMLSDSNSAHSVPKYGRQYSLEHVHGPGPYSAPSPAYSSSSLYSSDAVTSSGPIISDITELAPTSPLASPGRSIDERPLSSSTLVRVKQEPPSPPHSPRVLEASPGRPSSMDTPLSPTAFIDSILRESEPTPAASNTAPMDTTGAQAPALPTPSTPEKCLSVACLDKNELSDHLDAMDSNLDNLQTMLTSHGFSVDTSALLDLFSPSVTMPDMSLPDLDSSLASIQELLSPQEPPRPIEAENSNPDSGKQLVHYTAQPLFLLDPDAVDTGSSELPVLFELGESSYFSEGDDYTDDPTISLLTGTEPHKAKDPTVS
# assay-explanation: enhancement of HSF1-driven luciferase signal – cell-based, NIH3T3, luminescence, dose retest, confirmation (AID 435004);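 further: stress induced by proteasome inhibitor MG132 added 30 min after compound; luciferase reporter driven by HSF1 response element in NIH3T3 cells; actives raise luminescence as potentiators of the MG132 stress response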
# Type: functional
The source made the active and inactive calls. No stated cut-off is given here; in the data, actives have a measured EC50 and inactives only a lower limit.
Possible outcomes: active, inactive

>  <compound>
COc1ccc(-c2nc3scc(-c4ccccc4)n3n2)cc1

>  <group-label>
inactive

$$$$
>  <compound>
O=C(c1nnsc1[S+]([O-])c1ccc(Cl)cc1)N1CCOCC1 (configuration not stated)

>  <group-label>
active

$$$$
>  <compound>
COC(=O)C(C)N(C(=O)c1ccc(C(=O)c2ccccc2)cc1)c1c(C)cccc1C (configuration not stated)

>  <group-label>
inactive

$$$$
>  <compound>
CC(C)n1cc(/C=N/NC(=O)COc2cccc3cccnc23)c2ccccc21

>  <group-label>
active

$$$$
>  <compound>
O=C(CSc1nnc(-c2cccs2)o1)N1CCCc2ccccc21

>  <group-label>
inactive

$$$$
>  <compound>
CCOP(=O)(C(NC(=O)c1ccccc1Cl)=C(Cl)Cl)c1ccccc1 (configuration not stated)

>  <group-label>
inactive

$$$$
>  <compound>
NC(=O)CSC1=N/C(=C\c2ccco2)C(=O)N1c1ccc(OC(F)F)cc1

>  <group-label>
active

$$$$
>  <compound>
O=C(CSc1nc2ccccc2c2nc3ccccc3n12)NCc1ccco1

>  <group-label>
inactive

$$$$
>  <compound>
O=C(CSc1nc[nH]n1)c1cccc([N+](=O)[O-])c1

>  <group-label>
inactive

$$$$
>  <compound>
FC(F)(F)c1cccc(Cn2nnnc2-c2cc(Cl)cc(Cl)c2)c1

>  <group-label>
inactive

$$$$
>  <compound>
O=C(Nc1ccccc1C(=O)OCC(=O)c1c[nH]c2ccccc12)c1ccco1

>  <group-label>
active

$$$$
>  <compound>
CCNC(=O)C(=O)NCc1ccncc1

>  <group-label>
inactive

$$$$
>  <compound>
Cc1ccc(CN2CCN(CC(C)C)C(CCO)C2)s1 (configuration not stated)

>  <group-label>
active

$$$$
>  <compound>
COc1cc(/C=C(/C#N)C(=O)c2c(C)[nH]c3ccccc23)ccc1OCC#N

>  <group-label>
inactive

$$$$
>  <compound>
COC(=O)c1c(C)oc2ccc(N(C(=O)Oc3ccccc3)S(=O)(=O)c3ccccc3)cc12

>  <group-label>
inactive

$$$$
>  <compound>
COc1ccc(C(=O)NC(=S)N2CCCCC2c2cccnc2)cc1OC (configuration not stated)

>  <group-label>
inactive

$$$$
>  <compound>
CCN(CC(=O)NC(C)C)Cc1nc(O)c2c3c(sc2n1)CCC3

>  <group-label>
inactive

$$$$
>  <compound>
Cc1c(-n2cc(C(=O)c3ccccc3O)cc(C#N)c2=O)c(=O)n(-c2ccccc2)n1C

>  <group-label>
inactive

$$$$
>  <compound>
CC(C)C(=O)N1CCC(n2nccc2NC(=O)CCOc2ccccc2)CC1

>  <group-label>
inactive

$$$$
>  <compound>
O=C(CNc1cccc2ccccc12)N/N=C/c1ccc([N+](=O)[O-])cc1

>  <group-label>
inactive

$$$$
>  <compound>
CCc1ccc(CN(C)C(=O)CCc2nc3ccccc3n(-c3ccc(OC)cc3)c2=O)cc1

>  <group-label>
inactive

$$$$
